Here the recorded solubility at 24 h is given for each entry.
experiment: ADME solubility determination at pH 2.0 and pH 7.4; assay type: physicochemical; conditions: aqueous buffer, thermodynamic from solid; PBS pH 7.4, shaken at 25° C. for 24 hours, LC-MS/MS; read-out: Solubility at pH 7.4
measured_endpoint: solubility at 24 h

>>> endpoint_value("COc1cccc(OC)c1-c1ncc2cnn(Cc3ccc(-c4nc(C(F)(F)F)cn4C)cc3)c2n1")
"< 10 µM"
>>> endpoint_value("COc1ncnc(C2CC2)c1-c1ncc2c(OC)nn(C(C)c3ccc(-c4nc(C(F)(F)F)cn4CCF)cc3)c2n1 (stereo not shown)")
"< 10 µM"
>>> endpoint_value("COc1ncnc(C2CC2)c1-c1ncc2cnn(Cc3ccc(-n4nc(C(F)(F)F)cc4C(C)C)cc3)c2n1")
"< 10 µM"
>>> endpoint_value("COc1ncnc(C2(C)CC2)c1-c1ncc2cnn(Cc3ccc(-c4nc(C(F)(F)F)cn4C(C)C)cc3)c2n1")
"> 10 µM"
>>> endpoint_value("COc1ncnc(C2CC2)c1-c1ncc2cnn(Cc3ccc(-c4nc5c(F)cccc5n4C)cc3)c2n1")
"< 10 µM"
>>> endpoint_value("CCn1cc(C(F)(F)F)nc1-c1ccc(Cn2nc(C#N)c3cnc(-c4c(OC)ncnc4C4CC4)nc32)cc1")
"< 10 µM"
>>> endpoint_value("COc1cn(C(C)C)c(-c2ccc(Cn3ncc4cnc(-c5c(OC)ncnc5C5CC5)nc43)cc2)n1")
"> 10 µM"
